target: JAK-2 enzyme (Homo sapiens, UniProt O60674); experiment: JAK2 inhibition assay (radiometric 33P filter assay); assay type: biochemical; conditions: 15 μM poly(Glu)4Tyr, 12 μM ATP; read-out: JAK2 inhibition data (Ki)
Sequence (O60674 whole entry, species assumed): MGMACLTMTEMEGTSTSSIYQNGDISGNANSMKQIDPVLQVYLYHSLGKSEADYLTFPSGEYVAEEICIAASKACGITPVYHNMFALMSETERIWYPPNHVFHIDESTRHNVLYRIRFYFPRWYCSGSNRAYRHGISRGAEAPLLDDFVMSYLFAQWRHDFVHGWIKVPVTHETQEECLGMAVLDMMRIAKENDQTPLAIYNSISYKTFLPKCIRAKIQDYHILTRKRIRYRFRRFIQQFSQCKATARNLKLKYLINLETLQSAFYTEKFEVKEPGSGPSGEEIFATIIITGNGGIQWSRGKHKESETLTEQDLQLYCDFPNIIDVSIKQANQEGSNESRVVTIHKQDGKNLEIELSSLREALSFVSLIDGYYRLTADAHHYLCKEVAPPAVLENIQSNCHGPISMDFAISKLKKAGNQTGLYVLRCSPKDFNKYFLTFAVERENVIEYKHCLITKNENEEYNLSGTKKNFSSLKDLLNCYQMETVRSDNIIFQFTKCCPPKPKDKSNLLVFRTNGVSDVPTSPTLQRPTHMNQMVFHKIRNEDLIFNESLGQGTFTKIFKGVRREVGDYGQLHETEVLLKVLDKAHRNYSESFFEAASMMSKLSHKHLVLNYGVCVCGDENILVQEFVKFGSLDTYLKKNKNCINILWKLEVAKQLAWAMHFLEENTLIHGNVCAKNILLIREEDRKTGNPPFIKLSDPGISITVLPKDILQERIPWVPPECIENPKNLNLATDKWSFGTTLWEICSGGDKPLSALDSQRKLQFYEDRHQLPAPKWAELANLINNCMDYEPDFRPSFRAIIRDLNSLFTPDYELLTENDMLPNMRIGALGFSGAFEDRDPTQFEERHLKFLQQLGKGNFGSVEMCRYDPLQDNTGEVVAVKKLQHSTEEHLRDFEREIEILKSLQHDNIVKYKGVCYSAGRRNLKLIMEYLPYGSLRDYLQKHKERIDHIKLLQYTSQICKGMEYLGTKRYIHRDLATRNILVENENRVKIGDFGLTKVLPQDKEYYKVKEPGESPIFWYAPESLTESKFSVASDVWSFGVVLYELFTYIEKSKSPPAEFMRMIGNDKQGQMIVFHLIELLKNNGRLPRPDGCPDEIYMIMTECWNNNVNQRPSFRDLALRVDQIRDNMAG
PROPERTY_MEASURED: Ki

// known answers, use as guide
CCCS(=O)(=O)N1CCCN(c2cc(-n3nc(Nc4ccc(N5CCN(C(=O)OCC)CC5)cc4)nc3N)ncn2)CC1
50 to 500 nM
CCCNC(=O)Nc1ccc(Nc2nc(N)n(-c3cc(N4C[C@@H](C)N(C(C)=O)[C@@H](C)C4)ncn3)n2)cc1
< 50 nM
CC(=O)N1CCCN(c2cc(-n3nc(Nc4ccc(N5CCN(C(=O)C6CCOCC6)CC5)cc4)nc3N)ncn2)CC1
< 50 nM
CC(=O)N1CCCN(c2cc(-n3nc(Nc4ccc(NC(=O)OCC(C)(C)C)cc4)nc3N)ccn2)CC1
50 to 500 nM
CC(=O)N1[C@H](C)CN(c2cc(-n3nc(Nc4ccc(N5CCN(C(=O)NC(C)(C)C)CC5)cc4)nc3N)ncn2)C[C@@H]1C
< 50 nM
CC(=O)N1[C@H](C)CN(c2cc(-n3nc(Nc4ccc(N(C)C(=O)OC(C)C)cc4)nc3N)ncn2)C[C@@H]1C
< 50 nM

The molecule listed as Nc1nc(Nc2ccc(N3CCOCC3)cc2)nn1-c1cc(N2CCN3C(=O)CC[C@@H]3C2)ncn1 shows Ki equal to < 50 nM

* * *

molecular target: JAK3 (Homo sapiens, UniProt P52333); test: JAK3 inhibition assay (radiometric 33P filter assay); format: biochemical; settings: 1 μM poly(Glu)4Tyr, 5 μM ATP, 1 nM JAK3, 25° C.; read-out: JAK3 inhibition data (Ki)
Sequence (P52333 whole entry, species assumed): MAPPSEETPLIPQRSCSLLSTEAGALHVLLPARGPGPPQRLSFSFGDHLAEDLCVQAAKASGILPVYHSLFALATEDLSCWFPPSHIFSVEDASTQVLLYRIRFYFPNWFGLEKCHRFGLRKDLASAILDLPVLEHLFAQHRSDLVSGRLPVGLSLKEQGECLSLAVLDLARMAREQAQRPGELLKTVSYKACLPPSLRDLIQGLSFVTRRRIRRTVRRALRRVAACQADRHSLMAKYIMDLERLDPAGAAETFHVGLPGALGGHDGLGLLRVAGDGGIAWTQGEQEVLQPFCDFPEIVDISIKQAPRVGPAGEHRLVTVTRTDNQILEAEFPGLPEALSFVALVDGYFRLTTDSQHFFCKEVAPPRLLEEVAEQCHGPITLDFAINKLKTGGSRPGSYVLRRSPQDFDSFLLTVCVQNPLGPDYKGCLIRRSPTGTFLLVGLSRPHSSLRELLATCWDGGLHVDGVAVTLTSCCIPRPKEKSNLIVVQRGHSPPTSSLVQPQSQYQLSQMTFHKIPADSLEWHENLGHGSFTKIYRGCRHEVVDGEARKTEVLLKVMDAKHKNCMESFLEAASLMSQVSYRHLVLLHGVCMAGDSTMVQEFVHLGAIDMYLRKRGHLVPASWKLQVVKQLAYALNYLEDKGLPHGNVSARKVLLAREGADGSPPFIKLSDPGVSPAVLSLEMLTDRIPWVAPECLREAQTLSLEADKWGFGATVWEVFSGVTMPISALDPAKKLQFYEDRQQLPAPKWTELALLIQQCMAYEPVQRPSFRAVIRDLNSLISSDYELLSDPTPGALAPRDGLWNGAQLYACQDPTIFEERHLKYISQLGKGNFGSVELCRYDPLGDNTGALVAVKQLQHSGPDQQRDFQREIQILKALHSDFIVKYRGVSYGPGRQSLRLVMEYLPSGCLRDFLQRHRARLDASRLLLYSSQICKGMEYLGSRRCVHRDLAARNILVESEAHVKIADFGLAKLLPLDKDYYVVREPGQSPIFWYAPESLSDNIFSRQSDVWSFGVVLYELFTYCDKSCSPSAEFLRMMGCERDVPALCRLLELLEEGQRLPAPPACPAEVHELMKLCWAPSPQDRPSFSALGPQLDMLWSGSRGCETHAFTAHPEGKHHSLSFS
pKi: −log10 of the molar value.
# pKi per entry

CCOC(=O)N1CCN(c2ccc(Nc3nc(N)n(-c4cc(N5CCCN(S(C)(=O)=O)CC5)ncn4)n3)cc2)CC1
6.30 to 7.30
CC(=O)N1CCCN(c2cc(-n3nc(Nc4ccc(NC(=O)C5CCOCC5)cc4)nc3N)ncn2)CC1
> 7.30
CC(=O)N1CCCN(c2cc(-n3nc(Nc4ccc(N)cc4)nc3N)ncn2)CC1
> 7.30

The compound listed as CC(=O)N1CCCN(c2cc(-n3nc(Nc4ccc(NC(=O)OCC(C)(C)C)cc4)nc3N)ccn2)CC1 shows pKi equal to 6.30 to 7.30

The compound listed as CCCOC(=O)Nc1ccc(Nc2nc(N)n(-c3ccnc(N4CCCN(C(C)=O)CC4)c3)n2)cc1 shows pKi equal to > 7.30

The compound listed as CCNC(=O)N1CCN(c2ccc(Nc3nc(N)n(-c4cc(N5C[C@@H](C)N(C(C)=O)[C@@H](C)C5)ncn4)n3)cc2)CC1 shows pKi equal to > 7.30

The compound listed as CCOC(=O)Nc1ccc(Nc2nc(N)n(-c3cc(N4CCCN(C(=O)CC#N)CC4)ncn3)n2)cc1 shows pKi equal to > 7.30

* * *

molecular target: JAK-2 enzyme (Homo sapiens, UniProt O60674); experiment: JAK2 inhibition assay (radiometric 33P filter assay); type: biochemical; details: 15 μM poly(Glu)4Tyr, 12 μM ATP; read-out: JAK2 inhibition data (Ki)
PROPERTY_MEASURED: Ki

// known answers, use as guide
CC(=O)N1[C@H](C)CN(c2cc(-n3nc(Nc4ccc(N(C)C(=O)OCC(C)C)cc4)nc3N)ncn2)C[C@@H]1C
< 0.05 µM
CCOC(=O)Nc1ccc(Nc2nc(N)n(-c3ccnc(N4CCCN(C(C)=O)CC4)c3)n2)cc1
0.05 to 0.5 µM
CCCCOC(=O)Nc1ccc(Nc2nc(N)n(-c3ccnc(N4CCCN(C(C)=O)CC4)c3)n2)cc1
0.05 to 0.5 µM
CCCOC(=O)Nc1ccc(Nc2nc(N)n(-c3cc(N4CCCN(C(C)=O)CC4)ncn3)n2)cc1
< 0.05 µM
CC(=O)N1[C@H](C)CN(c2cc(-n3nc(Nc4ccc(NC(=O)OC(C)(C)C)cc4)nc3N)ccn2)C[C@@H]1C
< 0.05 µM
CCCOC(=O)N1CCN(c2ccc(Nc3nc(N)n(-c4cc(N5C[C@@H](C)N(C(C)=O)[C@@H](C)C5)ncn4)n3)cc2)CC1
< 0.05 µM

The molecule listed as COC(=O)Nc1ccc(Nc2nc(N)n(-c3cc(N4CCCN(C(C)=O)CC4)ncn3)n2)cc1 shows Ki equal to < 0.05 µM
